The measurements presented in this section are drawn from the supplement of paper PMC10567573.

B1: PTPRD (parent)
chain: LTKLREMGREKCHQYWPAERSARY

Variants of: B1
PROCEDURE_SUMMARY: protein stability index of a GFP-peptide fusion (GPS, HEK-293T) (PSI 1-6); higher = more stable;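 further: lentivirally expressed fusions sorted by FACS into six bins by GFP to DsRed ratio, PSI derived from sequencing read proportions per bin multiplied by bin number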
TEST_SETTINGS: c terminus: a fixed tail appended

- VARIANT_LABEL: "R5H"
  protein stability index: 2.58
- VARIANT_LABEL: "P17C"
  protein stability index: 1.79
- VARIANT_LABEL: "T2G"
  protein stability index: 2.77
- VARIANT_LABEL: "R20K"
  protein stability index: 2.28
- VARIANT_LABEL: "R20P"
  protein stability index: 2.77
- VARIANT_LABEL: "A18I"
  protein stability index: 2.21
- VARIANT_LABEL: "M7G"
  protein stability index: 2.64
- VARIANT_LABEL: "E6T"
  protein stability index: 2.52
- VARIANT_LABEL: "K11L"
  protein stability index: 2.21
- VARIANT_LABEL: "Y15E"
  protein stability index: 3.54
- VARIANT_LABEL: "R5Y"
  protein stability index: 2.23
- VARIANT_LABEL: "E6D"
  protein stability index: 2.66
- VARIANT_LABEL: "R5Q"
  protein stability index: 2.91
- VARIANT_LABEL: "K3A"
  protein stability index: 2.7
- VARIANT_LABEL: "R23H"
  protein stability index: 2.26
- VARIANT_LABEL: "L1P"
  protein stability index: 2.66
- VARIANT_LABEL: "Q14P"
  protein stability index: 1.69
- VARIANT_LABEL: "R9K"
  protein stability index: 2.84
- VARIANT_LABEL: "K3Y"
  protein stability index: 2.44
- VARIANT_LABEL: "L1R"
  protein stability index: 2.47
- VARIANT_LABEL: "S21Q"
  protein stability index: 2.08
- VARIANT_LABEL: "R5S"
  protein stability index: 3.17
- VARIANT_LABEL: "R9V"
  protein stability index: 1.92
- VARIANT_LABEL: "R9S"
  protein stability index: 2.81
- VARIANT_LABEL: "E19G"
  protein stability index: 2.18
- VARIANT_LABEL: "Y24Q"
  protein stability index: 2.65
- VARIANT_LABEL: "L4N"
  protein stability index: 3.04
- VARIANT_LABEL: "L4P"
  protein stability index: 2.88
- VARIANT_LABEL: "R20G"
  protein stability index: 2.88
- VARIANT_LABEL: "R5T"
  protein stability index: 2.38
- VARIANT_LABEL: "M7T"
  protein stability index: 2.71
- VARIANT_LABEL: "Y24H"
  protein stability index: 2.75
- VARIANT_LABEL: "A22E"
  protein stability index: 2.53
- VARIANT_LABEL: "R20W"
  protein stability index: 1.51
- VARIANT_LABEL: "R5P"
  protein stability index: 2.75
- VARIANT_LABEL: "C12Q"
  protein stability index: 2.83
- VARIANT_LABEL: "R9W"
  protein stability index: 2.04
- VARIANT_LABEL: "A18N"
  protein stability index: 2.16
- VARIANT_LABEL: "M7K"
  protein stability index: 2.98
- VARIANT_LABEL: "G8E"
  protein stability index: 2.65
- VARIANT_LABEL: "K11V"
  protein stability index: 2.53
- VARIANT_LABEL: "C12G"
  protein stability index: 2.98
- VARIANT_LABEL: "Y24T"
  protein stability index: 2.35
- VARIANT_LABEL: "C12I"
  protein stability index: 2.35
- VARIANT_LABEL: "M7L"
  protein stability index: 1.9
- VARIANT_LABEL: "G8S"
  protein stability index: 1.94
- VARIANT_LABEL: "W16K"
  protein stability index: 3.03
- VARIANT_LABEL: "A22G"
  protein stability index: 2.33
- VARIANT_LABEL: "S21Y"
  protein stability index: 2.61
- VARIANT_LABEL: "R23L"
  protein stability index: 2.09
- VARIANT_LABEL: "Y24V"
  protein stability index: 2.41
- VARIANT_LABEL: "W16G"
  protein stability index: 3.25
- VARIANT_LABEL: "E6I"
  protein stability index: 1.9
- VARIANT_LABEL: "C12W"
  protein stability index: 2.25
- VARIANT_LABEL: "K3V"
  protein stability index: 1.92
- VARIANT_LABEL: "R9G"
  protein stability index: 2.79
- VARIANT_LABEL: "E6K"
  protein stability index: 1.95
- VARIANT_LABEL: "M7N"
  protein stability index: 2.77
- VARIANT_LABEL: "E6R"
  protein stability index: 2.38
- VARIANT_LABEL: "M7A"
  protein stability index: 2.57
- VARIANT_LABEL: "G8M"
  protein stability index: 2.07
- VARIANT_LABEL: "H13E"
  protein stability index: 2.74
- VARIANT_LABEL: "P17A"
  protein stability index: 2.12
- VARIANT_LABEL: "M7W"
  protein stability index: 1.67
- VARIANT_LABEL: "R5E"
  protein stability index: 3.16
- VARIANT_LABEL: "L4D"
  protein stability index: 3.29
- VARIANT_LABEL: "A22F"
  protein stability index: 1.58
- VARIANT_LABEL: "K3W"
  protein stability index: 1.88
- VARIANT_LABEL: "G8A"
  protein stability index: 2.02
- VARIANT_LABEL: "Q14S"
  protein stability index: 2.68
- VARIANT_LABEL: "Y15R"
  protein stability index: 2.82
- VARIANT_LABEL: "K11H"
  protein stability index: 2.4
- VARIANT_LABEL: "W16H"
  protein stability index: 2.91
- VARIANT_LABEL: "R20A"
  protein stability index: 2.05
- VARIANT_LABEL: "S21H"
  protein stability index: 1.91
- VARIANT_LABEL: "R23I"
  protein stability index: 1.99
- VARIANT_LABEL: "M7Q"
  protein stability index: 2.56
- VARIANT_LABEL: "R5D"
  protein stability index: 3.32
- VARIANT_LABEL: "R23K"
  protein stability index: 2.49
- VARIANT_LABEL: "E19Q"
  protein stability index: 2.2
- VARIANT_LABEL: "L1N"
  protein stability index: 3.1
- VARIANT_LABEL: "S21A"
  protein stability index: 2.58
- VARIANT_LABEL: "T2F"
  protein stability index: 1.96
- VARIANT_LABEL: "S21M"
  protein stability index: 1.96
- VARIANT_LABEL: "R5V"
  protein stability index: 2.18
- VARIANT_LABEL: "G8F"
  protein stability index: 1.73
- VARIANT_LABEL: "L4E"
  protein stability index: 3.55
- VARIANT_LABEL: "E6G"
  protein stability index: 2.23
- VARIANT_LABEL: "L1Q"
  protein stability index: 2.87
- VARIANT_LABEL: "R5F"
  protein stability index: 2.21
- VARIANT_LABEL: "E19S"
  protein stability index: 2.29
